molecular target: Human immunodeficiency virus type 1 protease (Human immunodeficiency virus 1, UniProt Q72874); experiment: In vitro inhibition of recombinant HIV-1 protease expressed in Escherichia coli strain D1210
Measured Metric: log10 of IC50 (log10 of the value in µM)
Log10 applied to IC50; unit prior to transform: µM.

Consider the worked cases shown below.
* OC1(c2ccc(Cl)cc2)CCN(CC#CC2(c3ccccc3)CO2)CC1 (configuration not stated) | 2.18
* OC1(C#CC2(c3ccccc3)CO2)CCN(Cc2ccccc2)CC1 (configuration not stated) | 2.86
* O=C(C#CCN1CCC(O)(c2ccc(Cl)cc2)CC1)c1ccccc1 | 1.30
* O=C(/C=C/C[N+]1([O-])CCC(O)(c2ccc(Cl)cc2)CC1)c1ccc(F)cc1 (configuration not stated) | 1.48
* O=C(C#CCN1CCC(O)(c2ccc(Cl)cc2)CC1)c1cccc(-c2ccccc2)c1 | 1.80

# map each compound to its log10 of IC50
1. O=C(/C=C/CN1CCC(O)(c2ccc(Cl)cc2)CC1)c1ccc(F)cc1
2. O=C(C#CCN1CCC(O)(c2ccc(Cl)cc2)CC1)c1ccc(-c2ccccc2)cc1

1: 1.90; 2: 2.00
